test system: K-562 leukemia; assay: NCI-60 one-dose screen, 48 h (100 = growth as untreated, 0 = no growth, -100 = all killed); settings: 10 µM unless noted
The panel holds about 83,000 compounds, 20% with a hit somewhere; the sample as a whole holds those more often.
# growth annotations
The figure you give is taken to be in %; do not add the unit.

Previously resolved entries follow.
Asked: Look at this compound and give its reported growth. O=C(O)/C=C\C(=O)N1C/C(=C\c2ccccc2Cl)C(=O)/C(=C/c2ccccc2Cl)C1
Given back: 8.25

Asked: Look at this compound and give its reported growth. COc1ccc2c(c1)OC1=C(C(=O)OC1)C2c1cc(OC)c(OC)c(OC)c1 (stereo not drawn)
Given back: 14.1

Asked: # query: growth of entry NC(=S)N/N=C/c1ccc(OC(=O)COc2cc(Cl)c(Cl)cc2Cl)cn1
Given back: 48.6

Asked: I would be grateful if you could share the reported growth for CCCC1C(C(=O)OCC)=C(N)Oc2cc(O)ccc21 (stereo not drawn) .
Given back: 85.6

Asked: Field request: growth | item: CN1CCN(CCCOc2ccc3ncnc(Nc4ccc(Oc5cccc(C(F)(F)F)c5)c(Cl)c4)c3c2)CC1
Given back: -13.1

Asked: Given the entry COc1ccc(C(=O)c2cc(C)c(OC)c(C)c2)c(OC)c1O , report its measured growth.
Given back: 8.52

Others:
Asked: Can you look up the measured growth of CCCC/C(=N\N=C(N)N)c1ccc(F)cc1 for me?
Given back: 10.4

Asked: Looking for the measured growth of O=C1C(=O)c2c(nc3ncccn23)-c2ccccc21 , can you help?
Given back: -43.5

Asked: # query: growth of entry O=C1CCCN1c1cccc2cccnc12
Given back: 96.4

Asked: Quick check: growth of O=C(Nc1ccc(Nc2ncccn2)cc1)NC1C=c2ccccc2=CC1 (stereo not drawn) ?
Given back: 89.1

Asked: Item under review: CCCCCCCCCCCCC1CCC/C=C\CCC(=O)O1 (stereo not drawn) . Reported growth?
Given back: 101

Asked: Item under review: C=C(C)[C@@H]1CC[C@]2(C(=O)N3CCN(C)CC3)CC[C@]3(C)[C@H](CC[C@@H]4[C@@]5(C)CCC(=O)C(C)(C)[C@@H]5CC[C@]43C)[C@@H]12 . Reported growth?
Given back: 60.5

Asked: For COC(=O)C(c1ccccc1)C(CC(=O)c1ccccc1)c1ccccc1 (stereo not drawn) , what is its reported growth?
Given back: 73.1

Asked: Form field: reported growth of COc1ccc(C(O)c2cc3c(N)c(C(=O)Nc4cccc(Br)c4C)sc3nc2C)cc1 (stereo not drawn)
Given back: 5.92

Asked: Would you mind telling me what growth value was observed for O=S(=O)(NCCCNc1nccc(-c2c(-c3ccc(F)c(O)c3)nc3sccn23)n1)c1ccc(F)cc1 ?
Given back: 3.41

###

system: MDA-MB-435 melanoma; test: NCI-60 one-dose screen, 48 h; settings: 10 µM unless noted
About 83,000 compounds went through this panel and 20% of them were active in at least one assay; those are over-represented in the sample as a whole. Activity calls are given as the source filed them. The calls were made as follows: active = growth percent below 10; inactive = the rest.
Classes to choose from: active, inactive

# example entries with known answers
Asked: What did the test return for O=S(=O)(O)c1cc(O)c2c(N=Nc3ccc(Nc4ccccc4)c4c(S(=O)(=O)O)cccc34)cc(S(=O)(=O)O)cc2c1 ?
Given back: inactive

Asked: Which outcome did this test record for the molecule O=C1NC(=S)NC(=O)C1=Cc1cn(Cc2ccccn2)c2ccccc12 ?
Given back: inactive

Asked: # outcome recorded in this test, key = C/C(=C(/c1ccccc1)c1ccc(OCC(O)CNCCN2CCOCC2)cc1)c1ccccc1 (centres undefined)
Given back: active

Asked: Record request — test call for COc1cccc(-c2nc3occn3c2-c2ccnc(NCCCNS(=O)(=O)c3cccc(F)c3)n2)c1
Given back: inactive

Asked: Write down the call the test reported for this molecule. Item: O=C1c2cccnc2C(=O)c2nc3cc(N4CCN(C5CC5)CC4)ccc3nc21
Given back: active

Continuing:
Asked: Lab log entry: CC(C)Sc1nc(NN)c(C#N)c(-c2ccccc2)n1 — outcome as called in the assay?
Given back: inactive

Asked: Which outcome did this test record for the molecule CC1=CC2(C)/C=C(C)/C=C\CC(O)/C=C3/C=CC(=C4C(=O)OC2(CC1C)C4=O)OC3 (centres undefined) ?
Given back: active

Asked: Given COc1ccc(Cc2nc3cc(OC)c(OC)cc3c(=O)[nH]2)cc1 , state the outcome it received in this test.
Given back: inactive

Asked: Given COc1cccc(CCC(=O)c2cc3c(N)c(C(=O)Nc4cccc(Cl)c4C)sc3nc2C)c1 , state the outcome it received in this test.
Given back: active
